Test system: MDA-MB-435
EXPERIMENT NOTES: NCI tumour cell line growth inhibition, 48 h
OBSERVED PROPERTY: TGI

Query block: I would be grateful if you could share the reported TGI for `C[n+]1cc2cc(O)c(O)cc2c2ccc3cc(O)c(O)cc3c21` .
Result block: > 100 µM

Give TGI for each listed item.
1. O=C(NCc1ccccc1)c1cc2ccccc2oc1=Nc1cccc(C(F)(F)F)c1
2. N#CC1(c2ccc(NC(=O)c3cccnc3NCc3ccncc3)cc2)CCCC1
3. Nc1ncc(Cc2ccc3c(c2)OCO3)c(N)n1

Result block:
> 100 µM
37.4 µM
> 100 µM

====

Tested on: SNB-19 CNS
EXPERIMENT NOTES: NCI tumour cell line growth inhibition, 48 h; in the data active = GI50 below about 0.43 µM; inactive = the rest
Bench note: report the call from active, inactive

Examples with answers:
Query block: Query: recorded result category for `Cn1nccc1Nc1nccc(-c2ccn([C@H](CO)c3ccc(Cl)c(F)c3)c(=O)c2)n1` in this test
Result block: inactive

Query block: I would be grateful if you could indicate the recorded call for `CN[C@@H](C)C(=O)N[C@H]1CN(S(=O)(=O)c2cccc(S(=O)(=O)N3CC[C@H]4CC[C@@H](C(=O)NC(c5ccccc5)c5ccccc5)N4C(=O)[C@@H](NC(=O)[C@H](C)NC)C3)c2)CC[C@H]2CC[C@@H](C(=O)NC(c3ccccc3)c3ccccc3)N2C1=O` .
Result block: inactive

Query block: For CC(=O)ON1CCCC(P(=O)(OCOC(=O)C(C)(C)C)OCOC(=O)C(C)(C)C)C1=O (configuration not stated) , which call appears in the assay record?
Result block: inactive

Query block: Which result was noted for this compound in the test: `Cc1c(C(=N)C(C#N)C#N)c(=N)oc2c1ccc1ccccc12`
Result block: inactive

Query block: Per the records of this test, what outcome belongs to `N#Cc1nc2c(S(=O)(=O)c3ccc(Cl)cc3)c(N)n(Nc3cccc(Cl)c3)c2nc1C#N` ?
Result block: active

With those in mind, consider the next compound.
Query block: Just curious, what result did `O=C1c2cccc(Oc3ccccc3)c2C(=O)c2cccc(Oc3ccccc3)c21` get here?
Result block: inactive

====

Tested on: BT-549 breast
EXPERIMENT NOTES: NCI tumour cell line growth inhibition, 48 h
Consider the following molecules; for each one, report its TGI.

I need TGI for every entry listed below, if you could help.
1. COc1ccc2c(N)ncc(C#Cc3cc(C(=O)Nc4ccc(CN5CCN(C)CC5)c(C(F)(F)F)c4)cnc3C)c2c1
2. CC(C)C(Br)CCC1=CCC(Br)(Br)C1 (configuration not stated)
3. CC(=O)O[C@@H](c1nccn1Cc1ccccc1)[C@H]1OC(C)(C)O[C@@H]1[C@H]1COC(C)(C)O1
4. CN(C)CCCC1(c2ccc(F)cc2)OCc2cc(-c3cccc4[nH]ccc34)ccc21 (configuration not stated)

Result block:
["14.9 µM", "34.9 µM", "> 100 µM", "3.54 µM"]

For every record below, what is its TGI?
1. Cc1c2cccc-2c2cc(O)c3ccccc3c2n1-c1ccc(N(C)C)cc1
2. N#CC1c2ccccc2C=CN1C(=O)CCCl (configuration not stated)
3. COC(=O)CNC(=O)C(CSC(=O)OCC1c2ccccc2-c2ccccc21)NC(=O)CCC(NC(=O)OCC1c2ccccc2-c2ccccc21)C(=O)OC (configuration not stated)

Result block:
["23.3 µM", "30.7 µM", "31.3 µM"]
